Recorded values, source the Human Domainome abundance scans (Beltran et al. 2025).

B1: F-BAR and double SH3 domains protein 1, residues 467 to 528; numbered along this chain, Q86WN1 (parent)
chain: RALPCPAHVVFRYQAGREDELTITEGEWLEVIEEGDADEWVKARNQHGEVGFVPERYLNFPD

Variants of: B1
ASSAY_TEXT: abundance fitness (aPCA) (normalised: wild type 0, dead -1); higher = more abundant; growth selection in yeast, the domain comes from the species named
RUN_PARAMETERS: Homo sapiens
MEASURED_ENDPOINT: abundance fitness
Give bare numbers.

MUTATION_SPEC | MEASURED_ENDPOINT | READING
K42Y | abundance fitness | -0.381

Can you give me abundance fitness for all of these, one by one?
1. G16K
2. P6F
3. E33S
4. E39D
5. W40Q

# output
1: 0.077; 2: -0.285; 3: 0.063; 4: -0.228; 5: -0.122
